system: Vero E6 infected with SARS-CoV-2; assay: inhibition of SARS-CoV-2 cytopathic effect; higher = more antiviral protection, active = above 15; conditions: 10000 nM; 48 h
RESULT_TYPE: inhibition of SARS-CoV-2 cytopathic effect

COMPOUND	EXPERIMENTAL_TARGET	RESULT
Cc1ccc(C(=O)Nc2ccc(Oc3cc4cnn(C)c4cc3-c3cn[nH]c3)c(F)c2)c(=O)n1-c1ccc(F)cc1	Vero E6 infected with SARS-CoV-2	-2.06% (inactive)
CS(=O)(=O)N(Cc1ccco1)C[C@@H](O)Cn1c2ccccc2c2ccccc21	Vero E6 infected with SARS-CoV-2	9.76% (inactive)
CCC/C=C1\OC(=O)C2=C1CCC=C2 [ligustilide]	Vero E6 infected with SARS-CoV-2	5.79% (inactive)
CCO[C@@H](Cc1ccc(OCCc2ccc(OS(C)(=O)=O)cc2)cc1)C(=O)O	Vero E6 infected with SARS-CoV-2	1.52% (inactive)
Cn1ccnc1S	Vero E6 infected with SARS-CoV-2	0.22% (inactive)
Clc1ccc2c(c1)CCc1cccnc1C2=C1CCNCC1	Vero E6 infected with SARS-CoV-2	-5.42% (inactive)
C/C(=N\NC(=N)N)c1cc(NC(=O)CCCCCCCCC(=O)Nc2cc(/C(C)=N/NC(=N)N)cc(/C(C)=N/NC(=N)N)c2)cc(/C(C)=N/NC(=N)N)c1	Vero E6 infected with SARS-CoV-2	7.5% (inactive)

----------
tested on: Vero E6 infected with SARS-CoV-2; experiment: inhibition of SARS-CoV-2 cytopathic effect; higher = more antiviral protection, active = above 15; conditions: 833.33 nM; 48 h
This section presents compounds with their documented inhibition of SARS-CoV-2 cytopathic effect values.
RESULT_TYPE: inhibition of SARS-CoV-2 cytopathic effect (%)

COMPOUND	MEASURED_NUMBER
CC(=O)Nc1cccc(-n2c(=O)n(C3CC3)c(=O)c3c(Nc4ccc(I)cc4F)n(C)c(=O)c(C)c32)c1 [trametinib]	-16.9
CC1OC2(CS1)CN1CCC2CC1 (stereo not drawn) [cevimeline]	-0.01
C/C(=C\c1csc(C)n1)[C@@H]1C[C@@H]2O[C@]2(C)CCC[C@H](C)[C@H](O)[C@@H](C)C(=O)C(C)(C)[C@@H](O)CC(=O)O1 [epothilone-B]	-0.91

----------
This section presents compounds with their documented SARS-CoV-2 infection rate values.
system: Vero E6 infected with SARS-CoV-2; assay: SARS-CoV-2 infection rate relative to infected DMSO; higher = more infection, active = 60 or less; settings: 24 h

COMPOUND	UNITS_SYMBOL	SARS-CoV-2 infection rate
CN(C)CCn1nnnc1SCC1=C(C(=O)O)N2C(=O)[C@@H](NC(=O)Cc3csc(N)n3)[C@H]2SC1 [cefotiam] (10 µM)	%	100
Clc1ccc2nsnc2c1NC1=NCCN1 [tizanidine] (10 µM)	%	112
N=C(N)NCCSSCCNC(=N)N [guanidinoethyldisulfide-bicarbonate] (10 µM)	%	107
CCN(CC)CCNC(=O)c1cc(Br)c(N)cc1OC [bromopride] (10 µM)	%	116
CCC[C@H](N[C@H]1CCc2cc(F)cc(F)c2C1)C(=O)Nc1cn(C(C)(C)CNCC(C)(C)C)cn1 (10 µM)	%	102
C#Cc1cccc2c1c(C(=O)c1ccc(Cn3c(C)nc4cnccc43)c(F)c1)cn2C(=O)N(C)C (10 µM)	%	106
CCCCC#Cc1nc(NC)c2ncn([C@@H]3O[C@H](CO)[C@@H](O)[C@H]3O)c2n1 (10 µM)	%	96
CN(C)c1cccc(-c2c3c(=O)n(-c4ccccc4Cl)[nH]c3cc(=O)n2C)c1 (10 µM)	%	112
Cc1cccn2c(=O)c(-c3nnn[nH]3)cnc12 [pemirolast] (10 µM)	%	94.5
O=C(O)CNC(=O)c1nc(Cl)c2ccccc2c1O (10 µM)	%	102
O=C(CCCCC(=O)Nc1c(I)cc(I)c(C(=O)O)c1I)Nc1c(I)cc(I)c(C(=O)O)c1I [iodipamide] (10 µM)	%	93
